The values you see were collected from ChEMBL document CHEMBL4052736.

tested on: Aspergillus niger; assay: Antifungal activity against Aspergillus niger after 24 hrs by well diffusion method; format: functional
Reported metric: MIC (µg/mL)
Reply with just the number (in µg/mL).

Solved cases (3 shown):
Clc1ccc(/C=N/Nc2nc(-c3ccccc3)cs2)c(Cl)c1
12.5
C(=N\Nc1nc(-c2ccccc2)cs1)/c1cccs1
25
Clc1ccc(-c2csc(N/N=C/c3ccc(Cl)cc3Cl)n2)cc1
6.12

Input line: Tell me measured MIC for "Fc1ccc(-c2csc(N/N=C/c3cccs3)n2)cc1" please.
Output line: 25

* * *

experiment: Antioxidant activity assessed as DPPH free radical scavenging activity at 20 ug/ml after 15 mins by spectrophotometric method; assay type: functional
Reported metric: inhibition (%)
Please give a number only; it is taken to be in %.

Fc1ccc(-c2csc(N/N=C/c3ccc(Cl)cc3Cl)n2)cc1
90.7

Input line: Read off the recorded inhibition for "Fc1ccc(-c2csc(N/N=C/c3cccs3)n2)cc1"
Output line: 92.4

Input line: Give the reported inhibition for this compound. "Cc1ccc(-c2csc(N/N=C/c3cccs3)n2)cc1"
Output line: 90.9
